Consider the following compounds; for each one, report its Emax at 3 µM.
Target: CB1 (Homo sapiens)
Test: CB1 functional assay, [35S]GTP-γ-S binding
Assay type: biochemical
Parameters: purchased ES-110-MG; host or cells: CHO membrane extracts
Settings: read-out: [35S]GTP-γ-S hCB1 Emax (%); Table 9 footnote a: Efficacy determined at 3 μM; relative to CP 55,940
Numbers only, in %.

Solved cases below.
compound="CCCCCCN1C(=O)/C(=N\\NC(=O)C23CC4CC(CC(C4)C2)C3)c2ccccc21 [Example 20]" study_target="CB1 (Homo sapiens)" reported_measurement=34.6
compound="CCCCN1C(=O)/C(=N\\NC(=O)c2ccccc2)c2ccccc21 [Example 22]" study_target="CB1 (Homo sapiens)" reported_measurement=69
compound="CCCCCCN1C(=O)/C(=N\\NC(=O)c2cccc3ccccc23)c2ccccc21 [Example 19]" study_target="CB1 (Homo sapiens)" reported_measurement=12.9

Lab request: please report Emax at 3 µM under test system CB1 (Homo sapiens) for CCCCCCN1C(=O)/C(=N\NC(=O)C2CCCCC2)c2ccccc21 [Example 11] 40.9

* * *

Biological target: human CB2 (hCB2) receptor (Homo sapiens)
Construct: expressed in transfected cells; host or cells: CHO (Chinese hamster ovary) cells, membranes
Test: CB2 binding assay, competitive binding of [3H]WIN 55212-2
Settings: CB2; Test Concentration 1.0E−05 (MD); 2nd determination
Description: Cell membrane homogenates (15 μg protein) are incubated for 120 min at 37° C. with 0.8 nM [^3H]WIN 55212-2 (the reference standard [Munro, 1993 #1321]) in the absence or presence of the test compound in a buffer containing 50 mM HEPES/Tris HCL (pH 7.4), 5 mM MgCl2, 2.5 mM EGTA, and 0.1% BSA. Nonspecific binding is determined in the presence of 10 μM WIN 55212-2. […] The results are expressed as a percentage of the inhibition of the control radioligand-specific binding. […]
measurement.label: % of Control Specific Binding 2nd (%)
Answers are plain numbers, in %.

Solved cases below.
compound="O=C1/C(=N\\NS(=O)(=O)c2ccccc2)c2ccccc2N1CCC1CCCCC1 [Example 8]" measurement_label="% of Control Specific Binding 2nd" reported_measurement=93.3
compound="CCCCCCN1C(=O)/C(=N\\NC(=O)c2ccccc2)c2ccccc21 [Example 6]" measurement_label="% of Control Specific Binding 2nd" reported_measurement=15.9
compound="O=C(N/N=C1\\C(=O)N(CCC2CCCCC2)c2ccccc21)c1ccccc1 [Example 5]" measurement_label="% of Control Specific Binding 2nd" reported_measurement=26.4
compound="CCCCCCN1C(=O)/C(=N\\NC(=O)Cc2ccccc2)c2ccccc21 [Example 7]" measurement_label="% of Control Specific Binding 2nd" reported_measurement=8.5
compound="CCCCCCN1C(=O)/C(=N\\NC(=O)Nc2ccccc2)c2ccccc21 [Example 4]" measurement_label="% of Control Specific Binding 2nd" reported_measurement=109.7

Need % of Control Specific Binding 2nd for each of these compounds.
1. O=C(N/N=C1\C(=O)N(CCC2CCCCC2)c2ccccc21)Nc1ccccc1 [Example 3]
2. CCCCCCN1C(=O)/C(=N\NS(=O)(=O)c2ccccc2)c2ccccc21 [Example 9]

107.1
100.6

* * *

Molecular target: human CB2 (hCB2) receptor (Homo sapiens, UniProt P34972)
Construct: expressed in transfected cells; host or cells: CHO (Chinese hamster ovary) cells, membranes
Sequence (P34972 whole entry): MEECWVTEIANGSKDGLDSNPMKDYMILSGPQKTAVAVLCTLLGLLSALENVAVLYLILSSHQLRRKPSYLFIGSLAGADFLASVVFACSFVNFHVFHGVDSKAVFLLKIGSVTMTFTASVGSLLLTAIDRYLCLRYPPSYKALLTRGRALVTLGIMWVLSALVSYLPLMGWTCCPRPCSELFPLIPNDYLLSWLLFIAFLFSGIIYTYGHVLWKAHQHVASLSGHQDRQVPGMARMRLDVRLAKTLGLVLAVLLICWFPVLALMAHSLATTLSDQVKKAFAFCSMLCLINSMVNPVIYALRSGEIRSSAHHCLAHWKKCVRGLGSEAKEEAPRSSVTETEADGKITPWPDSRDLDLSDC
Experiment: CB2 binding assay, competitive binding of [3H]WIN 55212-2
Settings: read-out: % inhibition hCB2 receptor, at 1 μM; specific binding of [3H]-WIN55212-2; CHO membranes
The label depends only on inhibition at 1 µM: Fulfilled if it is at least 30%, Not fulfilled if it is smaller.

Study these solved cases before continuing.
compound_string=CCCCCCN1C(=O)/C(=N\NC(=O)c2ccc(Cl)cc2)c2ccccc21 assigned_class=Fulfilled
compound_string=CCCCCCN1C(=O)/C(=N\NC(=O)c2ccccc2)c2cccc(C)c21 assigned_class=Fulfilled
compound_string=CCCCCCN1C(=O)/C(=N\NC(=O)c2cc3ccccc3s2)c2ccccc21 assigned_class="Not fulfilled"
compound_string=CCCCCCN1C(=O)/C(=N\NC(=O)c2ccccc2)c2cc(C)ccc21 assigned_class="Not fulfilled"
compound_string=CCCCCCN1C(=O)/C(=N\NC(=O)c2ccccc2)c2cc(Cl)ccc21 assigned_class="Not fulfilled"
compound_string=CCCCCCN1C(=O)/C(=N\NC(=O)c2ccc(OC)cc2)c2ccccc21 assigned_class=Fulfilled
compound_string=CCCCCCN1C(=O)/C(=N\NC(=O)c2ccccc2)c2cccc(Cl)c21 assigned_class="Not fulfilled"
compound_string=CCCCCCN1C(=O)/C(=N\NC(=O)C23CC4CC(CC(C4)C2)C3)c2ccccc21 assigned_class=Fulfilled
compound_string=CCCCCCN1C(=O)/C(=N\NC(=O)CCCCC)c2ccccc21 assigned_class=Fulfilled
compound_string=CCCCCCN1C(=O)/C(=N\NC(=O)c2ccccc2)c2cc(OC)ccc21 assigned_class="Not fulfilled"

Confirm if inhibition at 1 µM reported for the molecule `CCCCCCN1C(=O)/C(=N\NC(=O)c2ccc3ccccc3c2)c2ccccc21` is 30% or above. Not fulfilled

Confirm if inhibition at 1 µM reported for the molecule `O=C(N/N=C1\C(=O)N(Cc2ccc(Cl)cc2)c2ccccc21)c1ccccc1` is 30% or above. Not fulfilled

Confirm if inhibition at 1 µM reported for the molecule `CCCN1C(=O)/C(=N\NC(=O)c2ccccc2)c2ccccc21` is 30% or above. Fulfilled

* * *

Target: human CB1 (hCB1) receptor (Homo sapiens)
Construct: expressed in transfected cells; host or cells: CHO (Chinese hamster ovary) cells, membranes
Sequence (P21554 whole entry): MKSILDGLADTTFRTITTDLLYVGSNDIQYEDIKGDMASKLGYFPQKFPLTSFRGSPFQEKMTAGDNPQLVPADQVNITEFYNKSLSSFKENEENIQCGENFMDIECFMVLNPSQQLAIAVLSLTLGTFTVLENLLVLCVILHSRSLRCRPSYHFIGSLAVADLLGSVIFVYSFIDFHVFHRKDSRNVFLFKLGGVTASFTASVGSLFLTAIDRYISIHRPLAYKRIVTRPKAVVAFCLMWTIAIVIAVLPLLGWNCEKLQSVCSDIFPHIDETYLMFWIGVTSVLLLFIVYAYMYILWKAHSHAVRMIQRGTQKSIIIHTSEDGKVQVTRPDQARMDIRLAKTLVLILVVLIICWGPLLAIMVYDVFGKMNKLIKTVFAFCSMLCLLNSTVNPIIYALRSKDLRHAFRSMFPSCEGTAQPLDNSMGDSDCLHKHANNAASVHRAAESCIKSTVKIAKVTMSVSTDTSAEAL
Assay: CB1 binding assay, competitive binding of [3H]CP 55940
Settings: at 1 μM; specific binding of [3H]-CP55940; CHO membranes
measurement.label: inhibition at 1 µM

Solved cases below.
compound_string=O=C(N/N=C1\C(=O)N(CCN2C(=O)c3ccccc3C2=O)c2ccccc21)c1ccccc1 reported_measurement=3%
compound_string=CCCCCCN1C(=O)/C(=N\NC(=O)c2ccccc2)c2cccc(Cl)c21 reported_measurement=60%
compound_string=CCCCCCN1C(=O)/C(=N\NC(=O)CCCCC)c2ccccc21 reported_measurement=45.2%
compound_string=CCCCCCN1C(=O)/C(=N\NC(=O)c2ccccc2)c2cc(OC)ccc21 reported_measurement=26%
compound_string=CCCCN1C(=O)/C(=N\NC(=O)c2ccccc2)c2ccccc21 reported_measurement=86%
compound_string=CCCCCN1C(=O)/C(=N\NC(=O)c2ccccc2)c2ccccc21 reported_measurement=95%
compound_string=CCCCCCN1C(=O)/C(=N\NC(=O)c2ccccc2)c2cccc(I)c21 reported_measurement=61%
compound_string=CCCCCCN1C(=O)/C(=N\NC(=O)c2cc3ccccc3s2)c2ccccc21 reported_measurement="< 30%"

Would you kindly look at the next entry?
For `CCCCCCN1C(=O)/C(=N\NC(=O)c2ccc(OC)cc2)c2ccccc21` , what is its reported inhibition at 1 µM? 81.7%

* * *

Target: human CB2 (hCB2) receptor (Homo sapiens, UniProt P34972)
Construct: expressed in transfected cells; host or cells: CHO (Chinese hamster ovary) cells, membranes
Assay: CB2 binding assay, competitive binding of [3H]WIN 55212-2
Settings: read-out: % inhibition hCB2 receptor, at 1 μM; specific binding of [3H]-WIN55212-2; CHO membranes
The label depends only on inhibition at 1 µM: MET if it is at least 50%, NOT MET if it is smaller.

Study these solved cases before continuing.
compound_string=CCCCCCN1C(=O)/C(=N\NC(=O)c2cccc3ccccc23)c2ccccc21 study_target="human CB2 (hCB2) receptor (Homo sapiens, UniProt P34972)" assigned_class=MET
compound_string=CCCCCCN1C(=O)/C(=N\NC(=O)c2ccccc2)c2cc(F)ccc21 study_target="human CB2 (hCB2) receptor (Homo sapiens, UniProt P34972)" assigned_class="NOT MET"
compound_string=CCCCN1C(=O)/C(=N\NC(=O)c2ccccc2)c2ccccc21 study_target="human CB2 (hCB2) receptor (Homo sapiens, UniProt P34972)" assigned_class=MET
compound_string=CCCCCCN1C(=O)/C(=N/NC(=O)OC(C)(C)C)c2ccccc21 study_target="human CB2 (hCB2) receptor (Homo sapiens, UniProt P34972)" assigned_class="NOT MET"
compound_string=CCCCCCN1C(=O)/C(=N\NC(=O)OC(C)(C)C)c2ccccc21 study_target="human CB2 (hCB2) receptor (Homo sapiens, UniProt P34972)" assigned_class=MET

Now let's try a different one.
Confirm if inhibition at 1 µM reported for the compound `CCCCCN1C(=O)/C(=N\NC(=O)c2ccccc2)c2cc(I)ccc21` is 50% or above. NOT MET
